Tested on: MDA-MB-231 breast
Assay: NCI-60 one-dose screen, 48 h (100 = growth as untreated, 0 = no growth, -100 = all killed)
Settings: 10 µM unless noted
Compounds without any hit were thinned out: in the full panel of roughly 83,000, 20% have a hit.
growth values by entry
Please state the figure in %; there is no need to write the unit.

Worked set:
{"columns": ["Compound", "Unit spec", "growth"],
 "data": [
  ["Cc1cc(NS(=O)(=O)c2ccc(NC(=O)COc3ccc(-c4cc5ccccc5[nH]4)cc3)cc2)no1", "%", 18.9],
  ["Cc1ccc(N=c2nc3sc4c(C)ccc(C)c4n3c(N)c2C#N)cc1", "%", 93.9]
]}

Next compound, growth to be filled in.
Exam item: Recorded growth of O=C(N/N=C/c1ccc2c(c1)OCO2)c1cnn2c1NC(c1ccccc1)C2 (stereo not drawn) , please.
Marked response: 53.2

* * *

Tested on: SF-268 CNS
Experiment: NCI-60 one-dose screen, 48 h
Conditions: 10 µM unless noted
This is part of a sample that, as a whole, favours compounds with a hit. Of some 83,000 tested, about 20% had one in any assay. Active and inactive are the calls of the source. The calls were made as follows: active = growth percent below 10; inactive = the rest.
Hi there, use one of these labels in your reply, thanks! true for active, false for inactive

{"columns": ["Compound", "Answer label"],
 "data": [
  ["COc1ccc(NC(=O)COc2ccccc2)c(C(N)=O)c1", "false"],
  ["O=c1ccc2ccccc2o1", "false"],
  ["O=C1CCC(N2Cc3c(C#CCCCNC(=O)c4cc5c(o4)C(=O)c4ccccc4C5=O)cccc3C2=O)C(=O)N1 (stereo not drawn)", "true"],
  ["COc1ccccc1/C=C/C(=O)/C=C/c1ccccc1O", "true"],
  ["CN(C)c1ccc(/C=C(\\C#N)c2cc3ccccc3n2C)cc1", "false"]
]}

Exam item: GET /call?item= O=C1c2ccccc2-c2nnc(-c3ccc(Br)cc3)cc21 returns the recorded outcome of this test.
Marked response: false

Exam item: GET /call?item= COc1cccc(C2C3=C(COC3=O)N(CCO)c3cc4c(cc32)OCO4)c1 (stereo not drawn) returns the recorded outcome of this test.
Marked response: false

Exam item: GET /call?item= COc1nc2c(cc1S(=O)(=O)c1ccccc1)CCc1c-2cnn1-c1ccccc1 returns the recorded outcome of this test.
Marked response: false

* * *

System: NCI-H23 lung
Test: NCI-60 one-dose screen, 48 h (100 = growth as untreated, 0 = no growth, -100 = all killed)
Conditions: 10 µM unless noted
Description: Growth inhibition of the NCI-H23 human Non-Small Cell Lung tumor cell line is measured as a screen for anti-cancer activity. Cells are grown in 96 well plates and exposed to the test compound for 48 hours. Compounds are tested at a single concentration, which is 10^-5 M for most compounds. The reported endpoint is percent growth (GI% or GIPRCNT), where numbers from 0 - 100% represent growth inhibition, and numbers from -100% - 0 represent cell death. […]
This is part of a sample that, as a whole, favours compounds with a hit. Of some 83,000 tested, about 20% had one in any assay.
The label is Satisfied for growth below 90% and Not satisfied for growth equal to or exceeding 90%.

{"columns": ["Compound", "Answer label"],
 "data": [
  ["Cc1ccc2nc(NC(=O)CSC(=S)N3CCN(Cc4ccccc4)CC3)sc2c1", "Satisfied"],
  ["COc1ccc(-c2nc3sc(C)nn3c2-c2nc3cc(C)c(C)cc3[nH]2)cc1", "Not satisfied"],
  ["Cc1ccc(NS(=O)(=O)c2ccc(-c3cnc(C4CC4)o3)cc2)cc1", "Satisfied"]
]}

Exam item: Dear colleague, could you confirm whether growth of COc1cc(OCc2cccc(-c3ccc(C(O)c4nccs4)cc3)c2C)cc(OC)c1C=O (stereo not drawn) falls below 90%? Thanks.
Marked response: Satisfied

Exam item: Dear colleague, could you confirm whether growth of CN1CCN(C)c2cncc(Br)c2C1=O falls below 90%? Thanks.
Marked response: Not satisfied

Exam item: Dear colleague, could you confirm whether growth of O=c1[nH]c(=S)c2c(n1CCCO)CCC2 falls below 90%? Thanks.
Marked response: Not satisfied

Exam item: Dear colleague, could you confirm whether growth of Cc1cc(=O)oc2c1ccc1oc(C(=O)c3ccccc3)c(C)c12 falls below 90%? Thanks.
Marked response: Satisfied
